Source of measurements: ChEMBL document CHEMBL4177592

# IC50 per entry
target: Renin (Homo sapiens, UniProt P00797)
test.method.notes: Inhibition of renin in human plasma using angiotensinogen as substrate measured for 90 mins by [125I]-angiotensin based radioimmunoassay
Your answer should be a plain number; it is taken to be in nM.

// known answers, use as guide
[[record]]
compound = "CCc1cccc(-c2c(F)cccc2C(O)(CCCNC(=O)OC)[C@@H]2CCCN(C(=O)CCCN)C2)c1 (some centres undefined)"
unit_label = "nM"
reading = 13

[[record]]
compound = "CCc1cccc(-c2c(Cl)cccc2C(O)(CCCNC(=O)OC)[C@@H]2CCCN(C(=O)[C@@H]3CC[C@H](N)C3)C2)c1 (some centres undefined)"
unit_label = "nM"
reading = 8.4

[[record]]
compound = "CCc1cccc(-c2c(F)cccc2C(O)(CCCNC(=O)OC)[C@@H]2CCCN(C(=O)CC3CCCNC3)C2)c1 (some centres undefined)"
unit_label = "nM"
reading = 40

[[record]]
compound = "CCc1cccc(-c2c(F)cccc2C(O)(CCCNC(=O)OC)[C@@H]2CCCN(C(=O)NCCNC)C2)c1 (some centres undefined)"
unit_label = "nM"
reading = 120

[[record]]
compound = "CCc1cccc(-c2c(F)cccc2C(O)(CCCNC(=O)OC)[C@@H]2CCCN(C(=O)CC[C@H](N)C(=O)OCc3ccccc3)C2)c1 (some centres undefined)"
unit_label = "nM"
reading = 450


stdin: // IC50 lookup, key: CCc1cccc(-c2c(F)cccc2C(O)(CCCNC(=O)OC)[C@@H]2CCCN(C(=O)CC(O)CNC)C2)c1 (some centres undefined)
stdout: 29

stdin: // IC50 lookup, key: CCc1cccc(-c2c(F)cccc2C(O)(CCCNC(=O)OC)[C@@H]2CCCN(C(=O)C3CCNC3)C2)c1 (some centres undefined)
stdout: 540

stdin: // IC50 lookup, key: CCc1cccc(-c2c(Cl)cccc2C(O)(CCCNC(=O)OC)[C@@H]2CCCN(C(=O)[C@@H]3CC[C@H](NC)C3)C2)c1 (some centres undefined)
stdout: 4.3

stdin: // IC50 lookup, key: CCc1cccc(-c2c(F)cccc2C(O)(CCCNC(=O)OC)[C@@H]2CCCN(C(=O)CC3CNCCO3)C2)c1 (some centres undefined)
stdout: 24

###

target: Renin (Homo sapiens)
test.method.notes: Inhibition of renin in human plasma using angiotensinogen as substrate measured for 90 mins by [125I]-angiotensin based radioimmunoassay
attribute.measured: log10(IC50) (log10 of the value in nM)
Values below are the log10 of the recorded IC50, with nM as the unit.

[[record]]
molecule = "CCc1cccc(-c2c(F)cccc2C(O)(CCCNC(=O)OC)[C@@H]2CCCN(C(=O)CC[C@@H](N)CO)C2)c1 (stereo partly specified)"
reading = 2.26

[[record]]
molecule = "CCc1cccc(-c2c(Cl)cccc2C(O)(CCCNC(=O)OC)[C@@H]2CCCN(C(=O)CCCNC)C2)c1 (stereo partly specified)"
reading = 1.20

[[record]]
molecule = "CCc1cccc(-c2c(F)cccc2C(O)(CCCNC(=O)OC)[C@@H]2CCCN(C(=O)[C@@H]3CC[C@H](N)C3)C2)c1 (stereo partly specified)"
reading = 0.52

[[record]]
molecule = "CCc1cccc(-c2c(F)cccc2C(O)(CCCNC(=O)OC)[C@@H]2CCCN(C(=O)CC3CCNCC3)C2)c1 (stereo partly specified)"
reading = 1.36

[[record]]
molecule = "CCc1cccc(-c2c(F)cccc2C(O)(CCCNC(=O)OC)[C@@H]2CCCN(C(=O)NCCN)C2)c1 (stereo partly specified)"
reading = 2.18


stdin: // log10(IC50) lookup, key: CCc1cccc(-c2c(F)cccc2C(O)(CCCNC(=O)OC)[C@@H]2CCCN(C(=O)CCCCN)C2)c1 (stereo partly specified)
stdout: 2.08

stdin: // log10(IC50) lookup, key: CCc1cccc(-c2c(F)cccc2C(O)(CCCNC(=O)OC)[C@@H]2CCCN(C(=O)CC[C@H](N)CO)C2)c1 (stereo partly specified)
stdout: 2.66

stdin: // log10(IC50) lookup, key: CCc1cccc(-c2c(Cl)cccc2C(O)(CCCNC(=O)OC)[C@@H]2CCCN(C(=O)[C@H]3C[C@@H](N)[C@@H](O)C3)C2)c1 (stereo partly specified)
stdout: 0.26

stdin: // log10(IC50) lookup, key: CCc1cccc(-c2c(F)cccc2C(O)(CCCNC(=O)OC)[C@@H]2CCCN(C(=O)CCCCCN)C2)c1 (stereo partly specified)
stdout: 2.00

stdin: // log10(IC50) lookup, key: CCc1cccc(-c2c(F)cccc2C(O)(CCCNC(=O)OC)[C@@H]2CCCN(C(=O)CC(O)CN)C2)c1 (stereo partly specified)
stdout: 1.56

###

target: Renin (Homo sapiens)
test.method.notes: Inhibition of trypsin-activated recombinant human Fc-tagged renin expressed in BacMam virus infected HEK-F cells using Arg-Glu-Lys(5-Fam)-Ile-His-Pro-Phe-His-Leu-Val-IleHis-Thr-Lys(5,6 Tamra)-Arg-CONH2 as substrate measured after 2 hrs
pIC50: −log10 of the molar value.
Label No if pIC50 falls below 7; label Yes in every other case.

[[record]]
compound = "CCc1cccc(-c2c(F)cccc2C(O)(CCCNC(=O)OC)[C@@H]2CCCN(C(=O)CC[C@H](N)C(=O)O)C2)c1 (stereo partly specified)"
class_name = "No"

[[record]]
compound = "CCc1cccc(-c2c(F)cccc2C(O)(CCCNC(=O)OC)[C@@H]2CCCN(C(=O)CCCN(C)C)C2)c1 (stereo partly specified)"
class_name = "No"

[[record]]
compound = "CCc1cccc(-c2c(F)cccc2C(O)(CCCNC(=O)OC)[C@@H]2CCCN(C(=O)C3CCNCC3)C2)c1 (stereo partly specified)"
class_name = "Yes"

[[record]]
compound = "CCc1cccc(-c2c(F)cccc2C(O)(CCCNC(=O)OC)[C@@H]2CCCN(C(=O)CC(CNC)OC)C2)c1 (stereo partly specified)"
class_name = "Yes"

[[record]]
compound = "CCc1cccc(-c2c(Cl)cccc2C(O)(CCCNC(=O)OC)[C@@H]2CCCN(C(=O)[C@H]3C[C@@H](N)[C@@H](O)C3)C2)c1 (stereo partly specified)"
class_name = "Yes"


stdin: Form field: pIC50 at least 7? Entry: CCc1cccc(-c2c(F)cccc2C(O)(CCCNC(=O)OC)[C@@H]2CCCN(C(=O)[C@@H](O)CCN)C2)c1 (stereo partly specified)
stdout: Yes

stdin: Form field: pIC50 at least 7? Entry: CCc1cccc(-c2c(F)cccc2C(O)(CCCNC(=O)OC)[C@@H]2CCCN(C(=O)CCCCN)C2)c1 (stereo partly specified)
stdout: Yes

stdin: Form field: pIC50 at least 7? Entry: CCc1cccc(-c2c(Cl)cccc2C(O)(CCCNC(=O)OC)[C@@H]2CCCN(C(=O)[C@@H]3CC[C@H](N)C3)C2)c1 (stereo partly specified)
stdout: Yes

stdin: Form field: pIC50 at least 7? Entry: CCc1cccc(-c2c(F)cccc2C(O)(CCCNC(=O)OC)[C@@H]2CCCN(C(=O)C3CNCCO3)C2)c1 (stereo partly specified)
stdout: No

stdin: Form field: pIC50 at least 7? Entry: CCc1cccc(-c2c(F)cccc2C(O)(CCCNC(=O)OC)[C@@H]2CCCN(C(=O)CC[C@H](N)C(N)=O)C2)c1 (stereo partly specified)
stdout: No

stdin: Form field: pIC50 at least 7? Entry: CCc1cccc(-c2c(F)cccc2C(O)(CCCNC(=O)OC)[C@@H]2CCCN(C(=O)NCCN)C2)c1 (stereo partly specified)
stdout: Yes

stdin: Form field: pIC50 at least 7? Entry: CCc1cccc(-c2c(F)cccc2C(O)(CCCNC(=O)OC)[C@@H]2CCCN(C(=O)CC3CNCCO3)C2)c1 (stereo partly specified)
stdout: Yes

stdin: Form field: pIC50 at least 7? Entry: CCc1cccc(-c2c(F)cccc2C(O)(CCCNC(=O)OC)[C@@H]2CCCN(C(=O)CC[C@@H](N)CO)C2)c1 (stereo partly specified)
stdout: Yes

stdin: Form field: pIC50 at least 7? Entry: CCc1cccc(-c2c(F)cccc2C(O)(CCCNC(=O)OC)[C@@H]2CCCN(C(=O)CC3CCCN3)C2)c1 (stereo partly specified)
stdout: No

stdin: Form field: pIC50 at least 7? Entry: CCc1cccc(-c2c(F)cccc2C(O)(CCCNC(=O)OC)[C@@H]2CCCN(C(=O)CC(O)CNC)C2)c1 (stereo partly specified)
stdout: Yes

###

target: Renin (Homo sapiens, UniProt P00797)
Sequence (P00797 whole entry): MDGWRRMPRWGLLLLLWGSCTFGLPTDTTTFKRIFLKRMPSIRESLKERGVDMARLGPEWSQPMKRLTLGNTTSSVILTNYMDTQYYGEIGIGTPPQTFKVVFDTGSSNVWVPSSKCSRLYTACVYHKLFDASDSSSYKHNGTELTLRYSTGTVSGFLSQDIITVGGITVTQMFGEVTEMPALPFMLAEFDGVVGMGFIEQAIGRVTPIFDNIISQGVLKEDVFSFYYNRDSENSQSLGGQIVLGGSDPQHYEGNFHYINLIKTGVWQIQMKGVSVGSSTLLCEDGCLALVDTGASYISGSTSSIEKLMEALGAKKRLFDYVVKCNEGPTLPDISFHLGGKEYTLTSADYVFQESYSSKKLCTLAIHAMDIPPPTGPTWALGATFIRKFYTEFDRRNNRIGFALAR
test.method.notes: Inhibition of trypsin-activated recombinant human Fc-tagged renin expressed in BacMam virus infected HEK-F cells using Arg-Glu-Lys(5-Fam)-Ile-His-Pro-Phe-His-Leu-Val-IleHis-Thr-Lys(5,6 Tamra)-Arg-CONH2 as substrate measured after 2 hrs
# IC50 per entry
Your answer should be a plain number; it is taken to be in nM.

// known answers, use as guide
[[record]]
compound = "CCc1cccc(-c2c(F)cccc2C(O)(CCCNC(=O)OC)[C@@H]2CCCN(C(=O)CC[C@H](N)C(=O)OC)C2)c1 (stereo partly drawn)"
reading = 25

[[record]]
compound = "CCc1cccc(-c2c(F)cccc2C(O)(CCCNC(=O)OC)[C@@H]2CCCN(C(=O)CCCCCN)C2)c1 (stereo partly drawn)"
reading = 3.2

[[record]]
compound = "CCc1cccc(-c2c(F)cccc2C(O)(CCCNC(=O)OC)[C@@H]2CCCN(C(=O)NCCNC)C2)c1 (stereo partly drawn)"
reading = 6.3

[[record]]
compound = "CCc1cccc(-c2c(Cl)cccc2C(O)(CCCNC(=O)OC)[C@@H]2CCCN(C(=O)CCCNC)C2)c1 (stereo partly drawn)"
reading = 1

[[record]]
compound = "CCc1cccc(-c2c(F)cccc2C(O)(CCCNC(=O)OC)[C@@H]2CCCN(C(=O)CCCN)C2)c1 (stereo partly drawn)"
reading = 1


stdin: Reported IC50 for Renin (Homo sapiens, UniProt P00797), given CCc1cccc(-c2c(F)cccc2C(O)(CCCNC(=O)OC)[C@@H]2CCCN(C(=O)CC3CCCNC3)C2)c1 (stereo partly drawn) ?
stdout: 2

stdin: Reported IC50 for Renin (Homo sapiens, UniProt P00797), given CCc1cccc(-c2c(F)cccc2C(O)(CCCNC(=O)OC)[C@@H]2CCCN(C(=O)C3CCNC3)C2)c1 (stereo partly drawn) ?
stdout: 25

stdin: Reported IC50 for Renin (Homo sapiens, UniProt P00797), given CCc1cccc(-c2c(F)cccc2C(O)(CCCNC(=O)OC)[C@@H]2CCCN(C(=O)CCN)C2)c1 (stereo partly drawn) ?
stdout: 100
